# reported viability, T/C; entries follow
Tested on: MDA-MB-468 spheroids with HUVEC/MSC, viability
Assay: Anticancer human tumor MDA-MB-468 cell line growth inhibition [PI3K];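 note: spheroids exposed to agents for seven days before readout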;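 for viability, T/C: 100% = DMSO vehicle control viability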
Conditions: second compound 0.1 µM; first compound 0.0316 µM; stronger effect = lower value
measure.name: viability, T/C (%)

1. C=CC(=O)N1CCN(c2nc(=O)n(-c3c(C)ccnc3C(C)C)c3nc(-c4c(O)cccc4F)c(F)cc23)C(C)C1 (stereo not given) + COc1c(OCCCN2CCOCC2)ccc2c3n(c(=NC(=O)c4cnc(N)nc4)nc12)CCN3; 56.7
2. Cn1nccc1Nc1nccc(-c2ccn(C(CO)c3ccc(Cl)c(F)c3)c(=O)c2)n1 (stereo not given) + CC(Nc1ccc2c(c1)OCCn1cc(N3C(=O)OCC3C(F)F)nc1-2)C(N)=O; 88
3. Cn1ncc(Cl)c1-c1cc(C(=O)NC(CN)Cc2cccc(F)c2)sc1Cl (stereo not given) + Cc1nc(NC(=O)N2CCCC2C(N)=O)sc1-c1ccnc(C(C)(C)C(F)(F)F)c1; 78.1
4. Cn1ncc(Cl)c1-c1cc(C(=O)NC(CN)Cc2cccc(F)c2)sc1Cl (stereo not given) + CC(Nc1ccc2c(c1)OCCn1cc(N3C(=O)OCC3C(F)F)nc1-2)C(N)=O; 78.7
5. CC1(C)CCC(Nc2ncc(C(F)(F)F)c(-c3c[nH]c4c(P(C)(C)=O)c(C#N)ccc34)n2)CN1 (stereo not given) + CC(Nc1ncnc2nc[nH]c12)c1cc2cccc(Cl)c2c(=O)n1-c1ccccc1; 12.5

====

# reported IC50; entries follow
Test system: MDA-MB-468 spheroids with HUVEC/MSC, viability
Assay: Anticancer human tumor MDA-MB-468 cell line growth inhibition [PI3K];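 note: spheroids exposed to agents for seven days before readout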
Settings: curve of first compound; second compound 0.1 µM
measure.name: IC50

1. CNC(=O)c1ccc(N2C(=S)N(c3ccc(C#N)c(C(F)(F)F)c3)C(=O)C2(C)C)cc1F + CC(Nc1ccc2c(c1)OCCn1cc(N3C(=O)OCC3C(F)F)nc1-2)C(N)=O; > 10 µM
2. C#Cc1c(F)ccc2cc(O)cc(-c3ncc4c(N5CC6CCC(C5)N6)nc(OCC56CCCN5CC(F)C6)nc4c3F)c12 (stereo not drawn) + CC(Nc1ncnc2nc[nH]c12)c1cc2cccc(Cl)c2c(=O)n1-c1ccccc1; > 10 µM
3. CC(Cn1ccc(-c2ccc(C#N)c(Cl)c2)n1)NC(=O)c1cc(C(C)O)[nH]n1 (stereo not drawn) + COc1c(OCCCN2CCOCC2)ccc2c3n(c(=NC(=O)c4cnc(N)nc4)nc12)CCN3; > 10 µM

====

Test system: MDA-MB-468 spheroids with HUVEC/MSC, viability
Experiment: Anticancer human tumor MDA-MB-468 cell line growth inhibition [PI3K];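 note: spheroids exposed to agents for seven days before readout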;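 for viability, T/C: 100% = DMSO vehicle control viability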
Conditions: second compound 0.1 µM; first compound 0.0316 µM; stronger effect = lower value
# reported viability, T/C; entries follow
measure.name: viability, T/C

1) CCCS(=O)(=O)Nc1ccc(F)c(C(=O)c2c[nH]c3ncc(-c4ccc(Cl)cc4)cc23)c1F + CC(Nc1ccc2c(c1)OCCn1cc(N3C(=O)OCC3C(F)F)nc1-2)C(N)=O; 95.4%
2) C=CC(=O)N1CCN(c2nc(=O)n(-c3c(C)ccnc3C(C)C)c3nc(-c4c(O)cccc4F)c(F)cc23)C(C)C1 (centres undefined) + CC(Nc1ccc2c(c1)OCCn1cc(N3C(=O)OCC3C(F)F)nc1-2)C(N)=O; 104%
3) CCN1CCN(Cc2ccc(Nc3ncc(F)c(-c4cc(F)c5nc(C)n(C(C)C)c5c4)n3)nc2)CC1 + CC(Nc1ncnc2nc[nH]c12)c1cc2cccc(Cl)c2c(=O)n1-c1ccccc1; 94.1%
4) CC1(C)CCC(CN2CCN(c3ccc(C(=O)NS(=O)(=O)c4ccc(NCC5CCOCC5)c([N+](=O)[O-])c4)c(Oc4cnc5[nH]ccc5c4)c3)CC2)=C(c2ccc(Cl)cc2)C1 + Cc1nc(NC(=O)N2CCCC2C(N)=O)sc1-c1ccnc(C(C)(C)C(F)(F)F)c1; 85.3%
